Study the reported pKi values for 5-hydroxytryptamine receptor 1A (Rattus norvegicus, UniProt P19327) given below; they originate from different publications.
study target: 5-hydroxytryptamine receptor 1A (Rattus norvegicus, UniProt P19327)
Sequence (P19327 whole entry): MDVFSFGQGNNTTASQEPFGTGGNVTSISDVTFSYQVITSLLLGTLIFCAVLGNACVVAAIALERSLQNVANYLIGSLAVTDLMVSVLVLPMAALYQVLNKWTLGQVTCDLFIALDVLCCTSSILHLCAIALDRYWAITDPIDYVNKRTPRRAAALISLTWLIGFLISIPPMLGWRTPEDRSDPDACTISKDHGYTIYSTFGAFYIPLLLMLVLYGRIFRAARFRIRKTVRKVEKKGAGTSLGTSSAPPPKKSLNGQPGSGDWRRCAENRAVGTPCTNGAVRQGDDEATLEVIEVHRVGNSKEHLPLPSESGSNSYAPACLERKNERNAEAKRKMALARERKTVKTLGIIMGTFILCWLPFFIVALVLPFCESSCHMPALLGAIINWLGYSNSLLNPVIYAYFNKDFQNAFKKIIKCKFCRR
pKi: −log10 of the molar value.
assay metric: pKi

molecule: CCCN(CCC)C1CCc2ccc3[nH]cc(C(=O)C(=O)N(CC)CC)c3c2C1 (stereo not given)
assay metric: pKi
readout value: 8.14

P = CCCN(C1COc2cccc(OC)c2C1)N1C(=O)c2ccccc2S1(=O)=O (stereo not given)
Q = COc1ccccc1N1CCN(CCCCCCCn2nc(-c3ccc(C)cc3)c3ccccc3c2=O)CC1
## Input Hi, I'm comparing P with Q and wondering which one has the bigger number for pKi. Any idea? Write down the label attached to your selection.
## Output P

1 = CN1CCN(c2nc3ccccc3c3c2CC2CCC3C2)CC1 (stereo not given)
2 = O=c1cc(-c2ccccc2)c2ccc(OCCCCN3CCC(c4noc5cc(F)ccc45)CC3)cc2o1
## Input Hi, I'm comparing 1 with 2 and wondering which one has the bigger number for pKi. Any idea? Write down the label attached to your selection.
## Output 2
(2: 7.90, 1: 5.62)
